# Tested on: NCI-H596
# measurement-description: relative viability (nuclei count vs DMSO), 5 days (fraction); higher = more cells survive
# experimental-parameters: first compound 0.1581 µM
The entries below come with measured relative viability values attached.
Just the number, please, no unit attached.

Solved entries:
>  <compound>
CC1(C)CCC(c2ccc(Cl)cc2)=C(CN2CCN(c3ccc(C(=O)NS(=O)(=O)c4ccc(N[C@H](CCN5CCOCC5)CSc5ccccc5)c(S(=O)(=O)C(F)(F)F)c4)cc3)CC2)C1 [Navitoclax] + N=C(N)NC(=N)NCCc1ccccc1 [Phenformin] (partner 250 µM)

>  <result-number>
0.67

$$$$
>  <compound>
CC1(C)CCC(c2ccc(Cl)cc2)=C(CN2CCN(c3ccc(C(=O)NS(=O)(=O)c4ccc(N[C@H](CCN5CCOCC5)CSc5ccccc5)c(S(=O)(=O)C(F)(F)F)c4)cc3)CC2)C1 [Navitoclax] + Nc1ncn([C@H]2C[C@H](O)[C@@H](CO)O2)c(=O)n1 [Decitabine] (partner 2 µM)

>  <result-number>
0.998

$$$$
>  <compound>
CC1(C)CCC(c2ccc(Cl)cc2)=C(CN2CCN(c3ccc(C(=O)NS(=O)(=O)c4ccc(N[C@H](CCN5CCOCC5)CSc5ccccc5)c(S(=O)(=O)C(F)(F)F)c4)cc3)CC2)C1 [Navitoclax] + O=C(CCCCCCC(=O)Nc1ccccc1)NO [Vorinostat] (partner 1 µM)

>  <result-number>
0.55

$$$$
>  <compound>
CC1(C)CCC(c2ccc(Cl)cc2)=C(CN2CCN(c3ccc(C(=O)NS(=O)(=O)c4ccc(N[C@H](CCN5CCOCC5)CSc5ccccc5)c(S(=O)(=O)C(F)(F)F)c4)cc3)CC2)C1 [Navitoclax] + CS(=O)(=O)CCNCc1ccc(-c2ccc3ncnc(Nc4ccc(OCc5cccc(F)c5)c(Cl)c4)c3c2)o1 [Lapatinib] (partner 2 µM)

>  <result-number>
1.28

$$$$

Next, consider the following compound.
// Input: CC1(C)CCC(c2ccc(Cl)cc2)=C(CN2CCN(c3ccc(C(=O)NS(=O)(=O)c4ccc(N[C@H](CCN5CCOCC5)CSc5ccccc5)c(S(=O)(=O)C(F)(F)F)c4)cc3)CC2)C1 [Navitoclax] + C[C@]1(O)C[C@@H](c2nc(-c3ccc4ccc(-c5ccccc5)nc4c3)c3c(N)nccn32)C1 [Linsitinib] (partner 1 µM) . Output its relative viability only.
1

* * *

# Tested on: NCI-H650
# measurement-description: relative viability (nuclei count vs DMSO), 5 days (fraction); higher = more cells survive
# experimental-parameters: first compound 0.005 µM
Each entry below lists one item and its recorded relative viability value.
Reply with the value as a number alone.

# annotated cases, reported relative viability shown
>  <compound>
CC1(C)CCC(c2ccc(Cl)cc2)=C(CN2CCN(c3ccc(C(=O)NS(=O)(=O)c4ccc(N[C@H](CCN5CCOCC5)CSc5ccccc5)c(S(=O)(=O)C(F)(F)F)c4)cc3)CC2)C1 [Navitoclax] + Nc1ncn([C@H]2C[C@H](O)[C@@H](CO)O2)c(=O)n1 [Decitabine] (partner 2 µM)

>  <relative viability>
0.331

$$$$
>  <compound>
CC1(C)CCC(c2ccc(Cl)cc2)=C(CN2CCN(c3ccc(C(=O)NS(=O)(=O)c4ccc(N[C@H](CCN5CCOCC5)CSc5ccccc5)c(S(=O)(=O)C(F)(F)F)c4)cc3)CC2)C1 [Navitoclax] + O=C(CCCCCCC(=O)Nc1ccccc1)NO [Vorinostat] (partner 1 µM)

>  <relative viability>
0.503

$$$$

Continue with the next compound.
State its relative viability: CC1(C)CCC(c2ccc(Cl)cc2)=C(CN2CCN(c3ccc(C(=O)NS(=O)(=O)c4ccc(N[C@H](CCN5CCOCC5)CSc5ccccc5)c(S(=O)(=O)C(F)(F)F)c4)cc3)CC2)C1 [Navitoclax] + CCNC(=O)c1noc(-c2cc(C(C)C)c(O)cc2O)c1-c1ccc(CN2CCOCC2)cc1 [Luminespib] (partner 0.01 µM)
0.794
